- tested-on: Voltage-gated inwardly rectifying potassium channel KCNH2 (Homo sapiens, UniProt Q12809, Y652A)
- Sequence (Q12809 whole entry Y652A): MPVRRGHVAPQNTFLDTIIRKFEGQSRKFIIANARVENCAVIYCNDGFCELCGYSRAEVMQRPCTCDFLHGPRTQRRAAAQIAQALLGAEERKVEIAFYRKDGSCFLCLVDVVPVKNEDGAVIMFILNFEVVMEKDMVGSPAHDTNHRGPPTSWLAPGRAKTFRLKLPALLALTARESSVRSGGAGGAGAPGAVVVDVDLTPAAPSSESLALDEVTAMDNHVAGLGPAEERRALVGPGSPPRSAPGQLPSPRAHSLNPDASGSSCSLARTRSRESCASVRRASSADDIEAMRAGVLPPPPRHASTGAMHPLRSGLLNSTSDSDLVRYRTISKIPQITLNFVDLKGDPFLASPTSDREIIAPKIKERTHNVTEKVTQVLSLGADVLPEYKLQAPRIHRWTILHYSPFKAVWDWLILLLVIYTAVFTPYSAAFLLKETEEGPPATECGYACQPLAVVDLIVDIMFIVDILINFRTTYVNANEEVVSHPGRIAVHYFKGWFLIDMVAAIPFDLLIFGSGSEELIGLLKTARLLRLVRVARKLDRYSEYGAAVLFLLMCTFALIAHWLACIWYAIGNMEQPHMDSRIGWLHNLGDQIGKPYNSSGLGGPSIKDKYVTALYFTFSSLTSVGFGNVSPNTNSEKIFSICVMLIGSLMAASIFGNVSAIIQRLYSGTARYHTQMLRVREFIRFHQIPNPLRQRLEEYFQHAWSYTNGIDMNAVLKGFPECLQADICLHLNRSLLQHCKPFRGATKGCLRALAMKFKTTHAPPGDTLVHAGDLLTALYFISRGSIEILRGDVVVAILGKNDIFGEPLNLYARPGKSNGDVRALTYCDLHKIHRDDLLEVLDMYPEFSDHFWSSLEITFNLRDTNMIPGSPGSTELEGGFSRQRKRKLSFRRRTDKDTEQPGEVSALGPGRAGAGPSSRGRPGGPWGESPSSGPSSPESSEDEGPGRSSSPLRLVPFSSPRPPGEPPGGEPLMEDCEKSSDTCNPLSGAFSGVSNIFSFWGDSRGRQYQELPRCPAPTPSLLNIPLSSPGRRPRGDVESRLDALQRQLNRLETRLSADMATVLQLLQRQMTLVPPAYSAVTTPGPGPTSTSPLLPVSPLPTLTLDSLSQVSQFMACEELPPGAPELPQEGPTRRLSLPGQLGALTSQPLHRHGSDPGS
- protocol-summary: Inhibition of human ERG Y652A mutant channel expressed in HEK293 cells assessed as blockade of potassium tail current by whole-cell patch clamp technique
- Type: cell-based
Counter-ions that a name gives are not always drawn.
value-kind: IC50 (µM)
# number only, unit µM dropped from output

Supply reported IC50 belonging to this compound: CCCCN1CCCC[C@@H]1C(=O)Nc1c(C)cccc1C
276

Identify measured IC50 associated with CCCCN1CCCCC1C(=O)Nc1c(C)cccc1C.Cl (racemic) [BUPIVACAINE HYDROCHLORIDE]
265

Tell me its IC50 given CCCCN1CCCC[C@H]1C(=O)Nc1c(C)cccc1C [LEVOBUPIVACAINE HYDROCHLORIDE] as the entry.
278
